Cited source for all entries: paper PMC10032564

molecular target: GB1 (K28H/Q32H, diHis GB1) (Streptococcus sp. 'group G', UniProt P06654, K254H/Q258H); construct: gene spg; GB1; test: NMR titration; PCS of the IDA-Co2+ complex; type: binding
Sequence (P06654 228-282 K254H/Q258H limits assumed): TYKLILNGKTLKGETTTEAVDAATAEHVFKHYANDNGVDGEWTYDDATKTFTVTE
pKd: −log10 of the molar value.
parameter measured: pKd

Q: So what does the record say about pKd for O=C(O)CNCC(=O)O ?
A: > 3.67

* * *

molecular target: GB1 (K28H/Q32H, diHis GB1) (Streptococcus sp. 'group G', UniProt P06654, K254H/Q258H); construct: gene spg; GB1; assay: NMR (Kd measurement; PCS of the NTA-Co2+ complex); format: binding
parameter measured: pKd
By convention, pKd is the negative base-10 log of a molar concentration.

Q: Dear colleague, I am looking for the recorded pKd of the following compound: O=C(O)CN(CC(=O)O)CC(=O)O
A: 3.89
